Reference source: patent US6284871

# SYSTEM_UNDER_TEST: non-activated Factor IX (Homo sapiens (Human)) (UniProt P00740)
# METHOD_DESCRIPTION: equilibrium binding in solution (method of Friguet): 30 nM Factor IX with varying peptide, non-bound Factor IX measured on immobilized peptide
QUANTITY_MEASURED: Kd

>>> assay_value("KNFVKPNETKTYFWK [compound … (SEQ ID NO: 3), synthetic peptide of Factor VIII A3-domain residues 1804-1818]")
"230 µM"
